- TARGET_SYSTEM: Substance-K receptor (Homo sapiens)
- Sequence (P21452 whole entry): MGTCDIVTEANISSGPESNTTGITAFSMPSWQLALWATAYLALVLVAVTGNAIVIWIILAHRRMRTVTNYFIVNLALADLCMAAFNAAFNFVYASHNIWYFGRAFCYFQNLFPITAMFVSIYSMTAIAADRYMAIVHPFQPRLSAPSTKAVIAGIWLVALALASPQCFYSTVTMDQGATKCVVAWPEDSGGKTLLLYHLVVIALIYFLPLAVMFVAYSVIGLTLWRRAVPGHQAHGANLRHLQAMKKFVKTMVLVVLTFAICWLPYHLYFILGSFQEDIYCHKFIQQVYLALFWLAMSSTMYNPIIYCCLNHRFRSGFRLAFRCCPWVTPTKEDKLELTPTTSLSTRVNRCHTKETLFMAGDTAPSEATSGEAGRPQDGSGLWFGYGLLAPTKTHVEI
Starred links: 1 amine or outer side, 2 acyl side, 3 side chain; linkers in the order of their positions; H or OH if unused. Non-standard residues stand in square brackets, D forms with d. Residues, ends and D or L forms follow the SMILES beside them. X1 = O=C(O)C[C@@H](C(=O)[*:2])N(c1ccc([N+](=O)[O-])c2nonc12)[*:1]; Nle = CCCC[C@H](N)C(=O)O

{"columns": ["COMPOUND", "Ki (nM)"],
 "data": [
  ["CCCC[C@H](NC(=O)[C@@H]1CCCN1C(=O)[C@H]1CCCN1C(=O)[C@H](Cc1ccccc1)NC(=O)[C@@H](Cc1c[nH]c2ccccc12)NC(=O)[C@H](C)NC(=O)[C@H](CCCNc1ccc([N+](=O)[O-])c2nonc12)NC(=O)c1ccccc1)C(N)=O", 1.45],
  ["CCCC[C@H](NC(=O)[C@@H]1CCCN1C(=O)[C@H]1CCCN1C(=O)[C@H](Cc1ccccc1)NC(=O)[C@@H](Cc1c[nH]c2ccccc12)NC(=O)[C@H](C)NC(=O)[C@H](CCCCNCC(=O)Nc1ccc([N+](=O)[O-])c2nonc12)NC(=O)c1ccccc1)C(N)=O", 1.58],
  ["CCCC[C@H](NC(=O)[C@H](CC(C)C)NC(=O)CNC(=O)[C@@H](NC(=O)[C@H](Cc1ccccc1)NC(=O)[C@H](CO)NC(=O)[C@H](CC(=O)O)Nc1ccc([N+](=O)[O-])c2nonc12)C(C)C)C(N)=O (H-[X1]SFVGL[Nle]-NH2)", 8.32],
  ["CSCC[C@H](NC(=O)[C@H](CC(C)C)NC(=O)CNC(=O)[C@@H](NC(=O)[C@H](Cc1ccccc1)NC(=O)[C@H](CO)NC(=O)[C@H](CC(=O)O)NC(=O)[C@@H](NC(=O)[C@H](CCCCN)NC(=O)[C@H](Cc1cnc[nH]1)Nc1ccc([N+](=O)[O-])c2nonc12)[C@@H](C)O)C(C)C)C(N)=O", 5.89]
]}
